system: acetylcholine-induced abdominal constriction; experiment: acetylcholine-induced abdominal constriction test (ACH); format: in vivo; details: Mus musculus, Table 9, Examples; mice; no route marked in the cell; read-out: ACH ED50
Listed here are compounds together with their documented log10 of ED50.
// stored as log10 of ED50 expressed in mg/kg

Compound	Study target	Recorded value
Cc1c(C(=O)c2ccccc2)c2ccccc2n1CC1CN(C)CCO1 (stereo not drawn) [Example 1C]	acetylcholine-induced abdominal constriction	1.32
CN1CCCC(Cn2cc(C(=O)c3cccc4ccccc34)c3ccccc32)C1 (stereo not drawn) [Example 1P]	acetylcholine-induced abdominal constriction	2.16
COc1ccc(C(=O)c2c(C)n(CC3CCN(C)C3)c3ccccc23)cc1 (stereo not drawn) [Example 2AI]	acetylcholine-induced abdominal constriction	1.04

The compound listed as Cc1c(C(=O)c2ccccc2F)c2ccccc2n1C[C@@H]1CC[C@@H](C)N1C (relative stereo) [Example 1AD] shows log10 of ED50 equal to 1.53

The compound listed as Cc1c(C(=O)c2ccccc2F)c2ccccc2n1CC1CN(C)CCO1 (stereo not drawn) [Example 1F] shows log10 of ED50 equal to 1.34

The compound listed as COc1cccc(C(=O)c2c(C)n(CC3CCCN(C)C3)c3ccccc23)c1 (stereo not drawn) [Example 1T] shows log10 of ED50 equal to 1.81

The compound listed as COc1ccc(C(=O)c2cn(CCC3CCCCN3C)c3ccccc23)cc1 (stereo not drawn) [Example 2F] shows log10 of ED50 equal to 1.65

The compound listed as CN1CCCC(Cn2cc(C(=O)c3ccccc3)c3ccccc32)C1 (stereo not drawn) [Example 1Q] shows log10 of ED50 equal to 1.65

The compound listed as COc1ccc(C(=O)c2cn(C(C)C3CCCN3C)c3ccccc23)cc1 (stereo not drawn) [Example 1AA] shows log10 of ED50 equal to 1.36
